Property: melting point; scope: individual compounds

Would you please look over these solved cases?
CC(C)(C)S(=O)Cc1cccc(N)c1 (stereo not drawn)    121 to 123 °C
Nc1nc(CCl)nc(Nc2ccccc2)n1    139 to 141 °C
COc1cccc(CC(NC(C)=O)C(=O)O)c1 (stereo not drawn)    148 to 150 °C
CN1CCCC[C@@H]1C(=O)O    219 to 221 °C
Cc1cccc(C(=O)Nc2ccccc2C(=O)O)c1    182 to 186 °C
NC(=O)NC1(C(=O)O)CC1    189 to 191 °C

Consider the compound "O=C(O)CCSCc1cn2ccccc2n1" and give its recorded melting point.
95 to 98 °C

Consider the compound OC1CCc2c(Cl)cccc21 (stereo not drawn) and give its recorded melting point.
69 to 71 °C

Consider the compound "N#Cc1ccc(S)cc1C(F)(F)F" and give its recorded melting point.
71 to 73 °C

Consider the compound "COCc1nnc(-c2cccc(C(=O)O)c2)o1" and give its recorded melting point.
139 to 141 °C

Consider the compound "N#CCc1cnn(-c2ccccc2)n1" and give its recorded melting point.
65 to 67 °C

====

Property: melting point; scope: individual molecules

O=C(O)c1[nH]c2ccccc2c1Cl    179 to 181 °C
CCc1ccc2c(c1)C(=O)C(=O)N2    114 to 116 °C
Cc1ccc(-c2csc(NC(=O)CCl)n2)cc1    169 to 171 °C
O=Cc1sc(=O)[nH]c1Cl    199 to 201 °C
O=C(NO)c1ccccc1C(F)(F)F    157 to 159 °C
O=Cc1ccc(OCc2cccc(F)c2)cc1    45 to 47 °C
Cc1cc(C(=O)O)c(F)cc1F    159 to 161 °C
CCOc1ccc(S(=O)(=O)Cl)cn1    47 to 49 °C

Consider the molecule "c1cnc2c(c1)NCCC2" and give its recorded melting point.
103 to 105 °C

Consider the molecule CC1(c2ccc(C(=O)O)cc2)NC(=O)NC1=O (centres undefined) and give its recorded melting point.
279 to 281 °C

Consider the molecule "CCSc1cc(Br)ccc1C=O" and give its recorded melting point.
50 to 52 °C

Consider the molecule "COc1cc(SC#N)ccc1O" and give its recorded melting point.
78 to 80 °C

Consider the molecule "N#CCc1ccc(F)c(Br)c1" and give its recorded melting point.
35 to 37 °C

Consider the molecule "ON=Cc1ccc(OCc2ccncc2)cc1" and give its recorded melting point.
163 to 165 °C

Consider the molecule "CCOC(=O)COc1ccc(C(N)=S)cc1" and give its recorded melting point.
126 to 128 °C

Consider the molecule "c1ccc(-c2nc[nH]n2)nc1" and give its recorded melting point.
159 to 161 °C

Consider the molecule "CS(=O)(=O)c1ccc(C(N)=NO)cc1" and give its recorded melting point.
196 to 198 °C

Consider the molecule CC(C)C(NC(=O)OC(C)(C)C)C(N)=NO (centres undefined) and give its recorded melting point.
182 to 184 °C

Consider the molecule "Cc1ccc(Nc2nnc(S)s2)c(C)c1" and give its recorded melting point.
172 to 174 °C

Consider the molecule "COc1ccc(COCc2cccc(N)c2)cc1" and give its recorded melting point.
55 to 57 °C

Consider the molecule "O=C(O)c1ccc(=O)n(-c2ccc(F)cc2)n1" and give its recorded melting point.
239 to 241 °C

====

measured endpoint: melting point

NC(=O)c1cc(N)ccc1Cl    153 to 155 °C

Consider the compound "COC(=O)Cn1cnc(C#N)n1" and give its recorded melting point.
53 to 55 °C

Consider the compound "CC(C)(C)OC(=O)NCCNS(=O)(=O)c1ccc(N)cc1" and give its recorded melting point.
130 to 132 °C

====

Property: melting point; scope: individual compounds

O=S(=O)(Cl)c1c(Br)cc(F)cc1Br    82 to 84 °C

Consider the compound "O=C(O)c1sccc1-c1ccc(F)cc1" and give its recorded melting point.
199 to 201 °C

Consider the compound OC1CCNCc2ccccc21 (centres undefined) and give its recorded melting point.
139 to 141 °C

====

Property: melting point; scope: individual compounds

Would you please look over these solved cases?
Cc1cc(C)n(CCO)n1    74 to 76 °C
COc1ccc(-c2cc(C(=O)O)[nH]n2)cc1    209 to 211 °C
CNS(=O)(=O)Cc1cc(C)on1    69 to 71 °C
COc1ccc(Br)cc1Cl    69 to 71 °C
ClCc1cc2c(cc1Cl)OCCCO2    55 to 57 °C
O=C(O)c1ccc(Sc2ccc(Cl)cc2)o1    161 to 163 °C
Cc1cc(C=O)cc(C)c1OCc1ccccc1Cl    58 to 60 °C
CCCCCCCC(=O)NCC(=O)O    104 to 106 °C
N#Cc1ccccc1NC(=O)CCCC(=O)O    139 to 141 °C
CC(C)(C)n1c(N)nc2ccccc21    158 to 160 °C

Consider the compound "NC(=NO)c1cnccn1" and give its recorded melting point.
182 to 184 °C

Consider the compound "Nc1ccc(Oc2ccc(CO)cc2)cc1" and give its recorded melting point.
79 to 81 °C

Consider the compound "Cc1nc2c(cnn2-c2cccc(Cl)c2)c(=O)[nH]1" and give its recorded melting point.
114 to 116 °C

Consider the compound O=C1CC2(CCOC2)CN1 (stereo unspecified) and give its recorded melting point.
63 to 65 °C

Consider the compound "CC(=O)N(Cc1ccc(N)cc1)C(C)C" and give its recorded melting point.
110 to 112 °C

Consider the compound "O=S(=O)(Cl)c1c(Cl)ccnc1Cl" and give its recorded melting point.
79 to 81 °C

Consider the compound "NC(=C[N+](=O)[O-])N1CCOCC1" and give its recorded melting point.
236 to 238 °C

Consider the compound "O=C(O)c1ccnc(N2CCCCC2)n1" and give its recorded melting point.
99 to 101 °C

====

Property: melting point; scope: individual compounds

NC(=O)c1ccc(C(N)=S)cc1    240 to 242 °C
NNc1c([N+](=O)[O-])cc(C(F)(F)F)cc1[N+](=O)[O-]    129 to 131 °C
O=C(O)c1nc(-c2cccs2)n(-c2ccc(F)cc2)n1    196 to 198 °C
CCOC(=O)c1cn[nH]c1C(F)F    64 to 66 °C
COc1ccc(C(C)=O)cc1CN1CCCCC1    54 to 56 °C

Consider the compound "CC(C)(C)CNc1ccc(C(N)=O)c(Cl)c1" and give its recorded melting point.
138 to 140 °C

Consider the compound "O=C(O)Cc1csc(-c2cccc(C(F)(F)F)c2)n1" and give its recorded melting point.
109 to 111 °C

Consider the compound CC(C(=O)O)S(=O)(=O)c1ccc(F)cc1 (stereo not drawn) and give its recorded melting point.
117 to 119 °C

Consider the compound "Cc1nc(CN)oc1-c1ccc(Cl)cc1" and give its recorded melting point.
69 to 71 °C

Consider the compound O=C(O)C1C2CCCC21 (stereo not drawn) and give its recorded melting point.
34 to 36 °C

Consider the compound CC(C)C(Oc1ccc(Br)cc1)C(=O)O (stereo not drawn) and give its recorded melting point.
105 to 107 °C

Consider the compound "Clc1noc(-c2ccco2)n1" and give its recorded melting point.
73 to 75 °C

Consider the compound "Cc1nnc(NC(=O)CCl)s1" and give its recorded melting point.
230 to 232 °C

====

Property: melting point; scope: individual compounds

O=C(O)C1CCN(c2nc3ccccc3o2)CC1    147 to 149 °C
O=C(O)c1cc(C2CC2)nn1-c1ccccc1    138 to 140 °C

Consider the compound "O=c1[nH]c2ccccc2cc1CCl" and give its recorded melting point.
199 to 201 °C

Consider the compound "Cc1sc2ncnc(Sc3ccccc3C(=O)O)c2c1C" and give its recorded melting point.
200 to 202 °C

Consider the compound "NNc1ccc(S(=O)(=O)Nc2ccccc2)cc1[N+](=O)[O-]" and give its recorded melting point.
207 to 209 °C

Consider the compound "COC(=O)c1cccc(OCc2ncon2)c1" and give its recorded melting point.
102 to 104 °C

Consider the compound "O=C(O)CNS(=O)(=O)c1ccc2ccccc2c1" and give its recorded melting point.
180 to 182 °C

Consider the compound "COc1ccc(-c2nc(CC(=O)O)cs2)cc1" and give its recorded melting point.
109 to 111 °C

Consider the compound "CCc1c(C(=O)O)cnn1C(C)(C)C" and give its recorded melting point.
133 to 135 °C

Consider the compound "Oc1cccc(-c2nnc[nH]2)c1" and give its recorded melting point.
192 to 194 °C

Consider the compound "CCNC(=O)CCC(=O)O" and give its recorded melting point.
84 to 86 °C

Consider the compound "C#CCNC(=O)Nc1ccccc1" and give its recorded melting point.
133 to 135 °C

====

measured endpoint: melting point

Would you please look over these solved cases?
CNC(=O)COc1cccc(Br)c1    94 to 96 °C
N#Cc1ccc(Cl)cc1NCC1CCOC1 (configuration not stated)    114 to 116 °C
O=C(O)C=Cc1cscn1    174 to 176 °C
CCCSc1ccc(C(=O)O)cc1    141 to 143 °C
CC(C)Nc1cc(F)ccc1[N+](=O)[O-]    68 to 70 °C
O=Cc1cnc(-c2ccc(Cl)cc2)nc1    183 to 185 °C

Next:
Consider the molecule "Nc1ccc(S(=O)(=O)Nc2ccccc2Cl)cc1" and give its recorded melting point.
159 to 161 °C

Measured values drawn from a melting point compilation (Tetko et al.) for this set.
